Molecular target: BTK (Homo sapiens, UniProt Q06187)
Sequence (Q06187 whole entry): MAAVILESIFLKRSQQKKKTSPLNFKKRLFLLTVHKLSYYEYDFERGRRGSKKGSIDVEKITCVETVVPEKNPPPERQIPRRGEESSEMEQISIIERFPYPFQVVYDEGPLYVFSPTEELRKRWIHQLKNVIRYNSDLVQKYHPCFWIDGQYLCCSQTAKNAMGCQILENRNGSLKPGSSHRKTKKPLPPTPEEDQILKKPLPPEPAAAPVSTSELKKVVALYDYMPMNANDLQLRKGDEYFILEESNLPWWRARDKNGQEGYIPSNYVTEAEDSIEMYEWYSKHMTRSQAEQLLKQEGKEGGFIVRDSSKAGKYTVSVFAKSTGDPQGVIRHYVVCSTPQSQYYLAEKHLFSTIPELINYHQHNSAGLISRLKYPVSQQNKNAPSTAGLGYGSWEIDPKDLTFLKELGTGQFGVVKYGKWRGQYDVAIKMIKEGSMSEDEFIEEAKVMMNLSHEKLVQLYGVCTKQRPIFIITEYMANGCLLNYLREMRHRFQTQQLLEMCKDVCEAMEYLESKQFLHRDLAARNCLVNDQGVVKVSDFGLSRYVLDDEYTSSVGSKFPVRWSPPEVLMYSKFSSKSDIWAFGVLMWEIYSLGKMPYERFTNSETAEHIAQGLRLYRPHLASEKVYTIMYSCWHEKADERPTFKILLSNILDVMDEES
Test: Degradation of BTK protein in Namalwa cells (Western blot; DC50, Dmax)
Details: BTK degradation; cell line not given
Each record here notes measured DC50.

Field: example entries. Status: answers known.
| COMPOUND | MEASURED |
| --- | --- |
| Nc1ncnc2c1c(-c1ccc(Oc3ccccc3)cc1)nn2C1CCN(C2CCN(CC3CCN(c4ccc5c(c4)C(=O)N(C4CCC(=O)NC4=O)C5=O)CC3)CC2)CC1 (stereo in doubt) [Compound 213b] | < 10 nM |
| NC(=O)c1c(-c2ccc(Oc3ccccc3)cc2)nn2c1NCCC2C1CCN(C2CCN(C(=O)N3CCN(Cc4ccc5c(c4)CN(C4CCC(=O)NC4=O)C5=O)CC3)CC2)CC1 (centres unmarked) [Compound 340] | > 50 nM |
| NC(=O)c1c(-c2ccc(Oc3ccccc3)cc2)nn2c1NCCC2C1CCN(CC2CCN(CC3CCN(c4ccc5c(c4)C(=O)N(C4CCC(=O)NC4=O)C5=O)CC3)CC2)CC1 (centres unmarked) [Compound 313] | 10 to 50 nM |
| NC(=O)c1c(-c2ccc(Oc3ccccc3)cc2)nn2c1NCCC2C1CCN(CC2CCN(C(=O)N3CCN(CC4CCN(c5ccc6c(c5)CN(C5CCC(=O)NC5=O)C6=O)CC4)CC3)CC2)CC1 (centres unmarked) [Compound 372] | 10 to 50 nM |
| NC(=O)c1c(-c2ccc(Oc3ccccc3)cc2)nn2c1NCC[C@H]2C1CCN(CC2CCN(CCC3CCN(c4ccc5c(c4)CN(C4CCC(=O)NC4=O)C5=O)CC3)CC2)CC1 (some centres unmarked) [Compound 334] | 10 to 50 nM |

Please fill in: DC50 reported for NC(=O)c1c(-c2ccc(Oc3ccccc3)cc2)nn2c1NCC[C@H]2C1CCN(C2CCN(CCC3CCN(c4ccc5c(c4)C(=O)N(C4CCC(=O)NC4=O)C5=O)CC3)CC2)CC1 (some centres unmarked) [Compound 325] = 10 to 50 nM

Item: Nc1ncnc2c1c(-c1ccc(Oc3ccccc3)cc1)nn2C1CCN(C2CCN(C(=O)N3CCN(CCC4CCN(c5ccc6c(c5)CN(C5CCC(=O)NC5=O)C6=O)CC4)CC3)CC2)CC1 (centres unmarked) [Compound 248] | DC50: 10 to 50 nM

DC50 recorded for this compound, NC(=O)c1c(-c2ccc(Oc3ccccc3)cc2)nn2c1NCCC2C1CCN(C2CCN(CCC3CCN(c4ccc5c(c4)C(=O)N(C4CCC(=O)NC4=O)C5=O)CC3)CC2)CC1 (centres unmarked) [Compound 309] , is 10 to 50 nM

Data credit: patent US12139492B2
